Source of measurements: patent US10208046B2

target: human M1 receptor (hCHRM1) (Homo sapiens, UniProt P11229); construct: expressed in transfected cells; assay: Measurement of M1 receptor positive allosteric modulator (M1PAM) activity, calcium fluorescence in CHO-K1 cells; type: cell-based; settings: inflection point in the concentration-dependent curve; acetylcholine at EC20 (final 0.6-0.8 nM); CHO-K1 cells expressing human M1; Fluo-4, FLIPRtetra; read-out: IP value;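 note: potency reported as IP value in nM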
Sequence (P11229 whole entry): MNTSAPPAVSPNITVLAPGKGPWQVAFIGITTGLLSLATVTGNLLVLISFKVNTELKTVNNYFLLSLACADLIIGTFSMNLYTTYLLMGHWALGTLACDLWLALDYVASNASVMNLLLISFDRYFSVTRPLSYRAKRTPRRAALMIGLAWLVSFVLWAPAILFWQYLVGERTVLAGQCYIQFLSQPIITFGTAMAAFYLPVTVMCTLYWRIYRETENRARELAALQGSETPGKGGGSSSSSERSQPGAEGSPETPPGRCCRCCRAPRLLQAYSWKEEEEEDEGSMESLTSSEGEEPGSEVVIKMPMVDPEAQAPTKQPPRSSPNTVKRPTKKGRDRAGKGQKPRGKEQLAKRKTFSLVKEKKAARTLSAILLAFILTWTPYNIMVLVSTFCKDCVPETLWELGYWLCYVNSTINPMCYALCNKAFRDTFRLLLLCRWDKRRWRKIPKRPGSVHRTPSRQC
propertyLabel: EC50 (nM)

molSmiles | unitString | measuredResult
CCC(F)(F)COc1nccc2c1C(=O)N(Cc1ccc(-c3cnn(C(F)F)c3)cc1)C2 | nM | 96
Cc1nn(C)cc1-c1ccc(CN2Cc3ncnc(OCC(F)F)c3C2=O)s1 | nM | 77
Cn1cc(-c2ccc(CN3Cc4ccnc(OCCC(F)(F)F)c4C3=O)c(F)c2)nn1 | nM | 85
Cn1ccc(-c2ccc(CN3Cc4ncnc(OCC(F)(F)F)c4C3=O)c(F)c2)n1 | nM | 77
